The values you see were collected from paper PMC12136037.

This section presents compounds with their documented dTm values.
- study system: ~100 representative kinases (Homo sapiens, UniProt P19784)
- Construct: Recombinant protein kinase domains with a concentration of 2 μM
- Sequence (P19784 whole entry, the tested form may be a part): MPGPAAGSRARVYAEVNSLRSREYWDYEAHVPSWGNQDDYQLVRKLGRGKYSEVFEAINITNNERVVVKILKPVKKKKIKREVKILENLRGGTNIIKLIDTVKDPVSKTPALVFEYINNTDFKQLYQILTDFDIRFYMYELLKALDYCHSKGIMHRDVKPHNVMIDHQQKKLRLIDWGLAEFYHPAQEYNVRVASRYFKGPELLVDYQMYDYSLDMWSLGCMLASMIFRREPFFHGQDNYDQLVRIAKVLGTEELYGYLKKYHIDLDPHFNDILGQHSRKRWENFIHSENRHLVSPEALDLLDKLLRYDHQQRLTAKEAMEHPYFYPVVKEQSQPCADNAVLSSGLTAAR
- test details: DSF 100 kinase selectivity screen;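 further: compound tested at 20 µM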
- Format: binding
- test context: Protein CK2A2; average of three replicates
- Procedure: Recombinant protein kinase domains with a concentration of 2 μM were mixed with a 20 μM compound solution in dimethyl sulfoxide (DMSO), 20 mM Hepes (pH 7.5), and 500 mM NaCl. SYPRO Orange (5000×, Invitrogen) was added as a fluorescence probe (1μl/ml). Subsequently, temperature-dependent protein unfolding profiles were measured using the QuantStudio 5 realtime PCR machine (Thermo Fisher Scientific, Waltham, MA, USA). […] The temperature was raised with a step rate of 3°C/min. […]

{"smiles code": "CC(C)(C)c1cc(NC(=O)Nc2cccc(-c3c[nH]c4ncnc(N5CCOCC5)c34)c2)n(-c2ccc3ncccc3c2)n1", "dTm (K)": -0.38}
{"smiles code": "Cc1ccc(-n2nc(C(C)(C)C)cc2NC(=O)Nc2cccc(-c3c[nH]c4ncnc(N5CCOCC5)c34)c2)cc1", "dTm (K)": -2.10}
{"smiles code": "C[C@@H]1CN(c2cc(-c3n[nH]c4ccc(OC5(C)CC5)cc34)ncn2)C[C@H](C)O1", "dTm (K)": -0.31}
{"smiles code": "COc1cc(S(C)(=O)=O)ccc1Nc1nc(N(C)C)c2c(Cl)c[nH]c2n1", "dTm (K)": 1.16}
{"smiles code": "Cc1cc(F)ccc1NC(=O)C1(C(=O)Nc2cccc(-c3c[nH]c4ncnc(N5CCOCC5)c34)c2)CC1", "dTm (K)": -0.63}
{"smiles code": "CC(C)(C)c1cccc(NC(=O)C2(C(=O)Nc3cccc(-c4c[nH]c5ncnc(N6CCOCC6)c45)c3)CC2)c1", "dTm (K)": 2.45}
{"smiles code": "CCSc1nc(NC)c2c(-c3cccc(NC(=O)Nc4cc(C(C)(C)C)nn4-c4ccc(C)cc4)c3)c[nH]c2n1", "dTm (K)": -0.62}
